target: Peroxisome proliferator-activated receptor delta (Homo sapiens); test: qHTS assay to identify small molecule antagonists of the peroxisome proliferator-activated receptor delta (PPARd) signaling pathway (AID 743215); conditions: HEK293H PPARd-UAS-bla, beta-lactamase FRET ratio, antagonist, 17 h; series mostly up to 62 µM;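 also: cells stimulated with agonist L165041 at 300 nM final during compound exposure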
Results filed as inconclusive are left out. Calls of active or inactive are those of the source. Calls follow the shape of the dose curve; as a rule, active = well fitted inhibition curve with a large enough effect in the signal ratio in the repeat runs (not every such curve was filed as active); inconclusive = weak or mixed curves, or effect the other way; inactive = no such curve, though single readings can be large or run the other way; the % refers to the signal ratio.
observation-type: outcome

compound=CC(C)CCCCCCOC(=O)c1ccccc1C(=O)OCCCCCCC(C)C result=inactive
compound=CCOP(=S)(OCC)Oc1ccc([N+](=O)[O-])cc1 result=inactive
compound="OCC(O)CCl (stereo not given)" result=inactive
compound=Nc1cccc(Cl)c1 result=inactive
compound=[N-]=[N+]=CC(=O)OC[C@H](N)C(=O)O result=inactive
compound=CN(C)NC(=O)CCC(=O)O result=inactive
compound=Cc1cccc(C)c1N result=inactive
compound=Cc1cccc(N)c1C result=inactive
compound=Nc1ccc([As](=O)(O)O)cc1 result=inactive
compound=CN(C)CCC#N result=inactive
compound=COP(=S)(OC)SCN1C(=O)c2ccccc2C1=O result=inactive
compound=CC(=O)/C=C/c1ccccc1 result=inactive
compound="CN1C(=O)CCS(=O)(=O)C1c1ccc(Cl)cc1 (stereo not given)" result=inactive
compound="Cc1cc(Cl)ccc1OC(C)C(=O)O (stereo not given)" result=inactive
compound=O=C(O)CCCc1ccc(N(CCCl)CCCl)cc1 result=inactive
